System: MFM-223
Test: normalised viability (% of control), CellTiter-Blue; higher = more viable cells (about 100 = DMSO control)
Settings: 100 nM; incubation time: 72 h
READOUT_NAME: normalised viability (%)
Reply numerically in %, unit not repeated.

| MOLECULE_SMILES | ENDPOINT_VALUE |
| --- | --- |
| Nc1nc(F)nc2c1ncn2[C@@H]1O[C@H](CO)[C@@H](O)[C@@H]1O | 92.8 |
| CCc1cncnc1N1CCN(Cc2nc3ccc(C(F)(F)F)cc3[nH]2)CC1 | 103 |
| Cc1ccc(-c2cc(C(F)(F)F)nn2-c2ccc(S(N)(=O)=O)cc2)cc1 | 88.4 |
| C=CC(=O)Nc1cc2c(Nc3ccc(F)c(Cl)c3)ncnc2cc1OCCCN1CCOCC1 | 98.3 |
| COc1cc2nccc(Oc3ccc(NC(=O)Nc4cc(C)on4)c(Cl)c3)c2cc1OC | 80.8 |

Qu. Query (compound): O=C(O)C(=O)O.[NH-][C@@H]1CCCC[C@H]1[NH-].[Pt+2] ; field requested: normalised viability
Ans. 91.8

Qu. Then Oc1ncc(N(CCCl)CCCl)c(O)n1 ?
Ans. 90.6

Qu. Then N#Cc1ccc(C(c2ccc(C#N)cc2)n2cncn2)cc1 ?
Ans. 74.9
